- Assay Summary: mitochondrial membrane potential change in A549 cells, profiling panel, cell-based, JC-1 fluorescence, basal, 24 h, 100 nL (AID 1138);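 further: A549 lung adenocarcinoma cells under basal conditions with no added stimulus; test concentration not given here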
- Run Parameters: higher = more signal
Let's look at some compounds and their measured z-score.
The answer should be written as a number, with no unit following it.

Field: example entries. Status: answers known.
[
  {
    "Compound": "C=CCNC(=O)[C@H]1[C@@H]2C(=O)O[C@@H](c3ccccc3)[C@@H](c3ccccc3)N2[C@@H](c2ccc(OCCO)cc2)[C@]12C(=O)Nc1ccc(C#Cc3ccc(OC)cc3)cc12",
    "z-score": -1.7
  },
  {
    "Compound": "COC(=O)C(CC#Cc1ccc2c(c1)[C@]1(C(=O)N2)[C@H](C(=O)N2CCN(c3ncccn3)CC2)[C@H]2C(=O)O[C@H](c3ccccc3)[C@H](c3ccccc3)N2[C@@H]1c1ccc(O)cc1)C(=O)OC",
    "z-score": -0.877
  },
  {
    "Compound": "N#Cc1ccc(NN2C(C(O)c3ccc(B(O)O)cc3)C=CC3CN(c4ccccc4)C(=O)C32)cc1 (stereo unspecified)",
    "z-score": -0.408
  }
]

QUERY: For the compound "COc1ccc([Si](C)(C)[C@H]2[C@H](CC(=O)N(CCO)Cc3ccccc3)O[C@@]3(C(=O)N(Cc4cccc(N5CCCCC5=O)c4)c4ccccc43)[C@@H]2C)cc1" , report z-score.
RESULT: -0.153

QUERY: For the compound "COCCOC(=O)N1C(=O)[C@@]2(c3cc(C#CC4(O)CCCCCC4)ccc31)[C@H](C(N)=O)[C@H]1C(=O)O[C@H](c3ccccc3)[C@H](c3ccccc3)N1[C@@H]2c1ccc(OCCO)cc1" , report z-score.
RESULT: -1.71

QUERY: For the compound "O=C1N(Cc2ccccc2)Cc2ccccc2C[C@@]12COC(c1ccc(OCCCO)cc1)=N2" , report z-score.
RESULT: -0.503
